# Tested Target: Amine oxidase [flavin-containing] A (Homo sapiens)
# Sequence (P21397 whole entry): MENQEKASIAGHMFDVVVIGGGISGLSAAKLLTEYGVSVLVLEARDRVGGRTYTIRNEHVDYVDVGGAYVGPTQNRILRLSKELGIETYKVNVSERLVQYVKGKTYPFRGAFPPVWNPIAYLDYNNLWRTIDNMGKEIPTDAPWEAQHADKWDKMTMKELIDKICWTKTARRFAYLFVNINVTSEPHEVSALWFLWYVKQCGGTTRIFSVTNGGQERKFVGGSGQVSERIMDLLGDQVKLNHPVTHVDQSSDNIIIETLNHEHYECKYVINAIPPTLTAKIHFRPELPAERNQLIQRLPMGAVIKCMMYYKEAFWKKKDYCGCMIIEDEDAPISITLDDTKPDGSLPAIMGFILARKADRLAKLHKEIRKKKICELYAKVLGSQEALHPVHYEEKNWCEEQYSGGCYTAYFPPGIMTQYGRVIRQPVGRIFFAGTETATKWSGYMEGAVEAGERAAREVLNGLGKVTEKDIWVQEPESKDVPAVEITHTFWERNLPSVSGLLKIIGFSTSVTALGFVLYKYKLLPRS
# Procedure Text: SSAO Activity Assay: Amine oxidase activity of recombinant hSSAO, hMAO-A, and hMAO-B isoforms are measured using the MAO-Glo assay kit (Promega, V1402). Ten nL test compounds (with DMSO as vehicle, 0.1% v/v for hSSAO, hMAO-A and hMAO-B) were added into assay plates by Echo, and pre-incubated with 5 μL of enzyme for 30 mins at room temperature before the addition of 5 μL of luminogenic substrate. The substrate concentration is 40 μM for human recombinant SSAO, 40 μM for human recombinant MAO-A, and 4 μM for human recombinant MAO-B. The hSSAO and hMAO-A assays were conducted in the MAO-A reaction buffer in the kit, and the MAO-B assay was conducted in the MAO-B reaction buffer. Oxidation of the substrate was conducted for 1 hr, before the addition of detecting reagent according the manufacture's protocol. The IC50 value of the tested compounds was calculated by fitting the dose response curve using a 4-parameter non-linear regression routine.
Endpoint Label: IC50

>>> recorded_result("C[C@H](CN1CCOCC1)CS(=O)(=O)c1ccc(OC/C(=C/F)CN)cc1")
"> 30 µM"

Moving on to the next molecule.
"NC/C(=C\F)COc1ccc(S(=O)(=O)CN2CCCC2=O)cc1" yielded IC50 of > 30 µM

* * *

# Tested Target: Amine oxidase [flavin-containing] B (Homo sapiens, UniProt P27338)
# Sequence (P27338 whole entry, canonical isoform): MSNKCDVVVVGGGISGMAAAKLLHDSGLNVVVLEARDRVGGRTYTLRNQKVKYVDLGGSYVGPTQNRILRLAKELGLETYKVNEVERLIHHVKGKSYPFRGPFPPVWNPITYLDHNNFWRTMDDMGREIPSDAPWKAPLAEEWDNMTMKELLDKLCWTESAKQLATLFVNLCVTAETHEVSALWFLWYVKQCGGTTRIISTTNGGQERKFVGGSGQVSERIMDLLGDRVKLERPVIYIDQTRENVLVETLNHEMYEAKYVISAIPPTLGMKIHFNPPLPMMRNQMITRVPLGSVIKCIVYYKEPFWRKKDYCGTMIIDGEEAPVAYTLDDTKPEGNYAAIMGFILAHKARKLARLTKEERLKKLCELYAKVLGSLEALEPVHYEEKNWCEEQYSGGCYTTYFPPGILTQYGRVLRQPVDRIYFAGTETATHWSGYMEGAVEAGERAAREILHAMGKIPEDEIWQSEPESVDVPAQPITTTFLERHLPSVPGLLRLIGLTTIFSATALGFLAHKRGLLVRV
# Procedure Text: SSAO Activity Assay: Amine oxidase activity of recombinant hSSAO, hMAO-A, and hMAO-B isoforms are measured using the MAO-Glo assay kit (Promega, V1402). Ten nL test compounds (with DMSO as vehicle, 0.1% v/v for hSSAO, hMAO-A and hMAO-B) were added into assay plates by Echo, and pre-incubated with 5 μL of enzyme for 30 mins at room temperature before the addition of 5 μL of luminogenic substrate. The substrate concentration is 40 μM for human recombinant SSAO, 40 μM for human recombinant MAO-A, and 4 μM for human recombinant MAO-B. The hSSAO and hMAO-A assays were conducted in the MAO-A reaction buffer in the kit, and the MAO-B assay was conducted in the MAO-B reaction buffer. Oxidation of the substrate was conducted for 1 hr, before the addition of detecting reagent according the manufacture's protocol. The IC50 value of the tested compounds was calculated by fitting the dose response curve using a 4-parameter non-linear regression routine.
pIC50: −log10 of the molar value.
Endpoint Label: pIC50

Here is how some compounds turned out for pIC50.
>>> recorded_result("NC/C(=C\\F)COc1ccc(S(=O)(=O)C[C@H]2CCCO2)cc1")
"> 5.00"
>>> recorded_result("CC1(CS(=O)(=O)c2ccc(OC/C(=C/F)CN)cc2)CCOCC1")
"> 5.00"
>>> recorded_result("NC/C(=C\\F)COc1ccc(S(=O)(=O)Cn2ccccc2=O)cc1")
"> 5.00"
>>> recorded_result("NC/C(=C\\F)COc1ccc(S(=O)(=O)C[C@H]2CC[C@H](NC(=O)C3CC3)CC2)cc1")
"> 5.00"
>>> recorded_result("NC/C(=C\\F)COc1ccc(S(=O)(=O)CC2(CN3CCCCC3=O)CC2)cc1")
"< 4.52"
>>> recorded_result("COCCOCS(=O)(=O)c1ccc(OC/C(=C/F)CN)cc1")
"< 4.52"
>>> recorded_result("CC(C)C(=O)N1CC(CS(=O)(=O)c2ccc(OC/C(=C/F)CN)cc2)C1")
"> 5.00"
>>> recorded_result("C[C@@H](CN1CCCCC1=O)CS(=O)(=O)c1ccc(OC/C(=C/F)CN)cc1")
"< 4.52"

"NC/C(=C\F)COc1ccc(S(=O)(=O)CC2CCOCC2)cc1" yielded pIC50 of > 5.00

"NC/C(=C\F)COc1ccc(S(=O)(=O)CC23CCC(C4(NC(=O)C5CC5)CC4)(CC2)CC3)cc1" yielded pIC50 of < 4.52

Attribution: ChEMBL document CHEMBL5729376
